- Test system: UACC-62 melanoma
- Assay overview: NCI-60 one-dose screen, 48 h (100 = growth as untreated, 0 = no growth, -100 = all killed)
- Experimental parameters: 10 µM
- Protocol: Growth inhibition of the UACC-62 human tumor cell line is measured as a screen for anti-cancer activity. Cells are grown in 96 well plates and exposed to the test compound for 48 hours. Compounds are tested at a single concentration, which is 10^-5 M for most compounds. The reported endpoint is percent growth (GI% or GIPRCNT), where numbers from 0 - 100% represent growth inhibition, and numbers from -100% - 0 represent cell death. For example, a value of 40 represents 60% growth inhibition. […]
The panel holds about 83,000 compounds, 20% with a hit somewhere; the sample as a whole holds those more often.
growth: recorded values
Field format: number, assumed %, no unit text.

Consider the following illustrative entries.
[[record]]
compound = "Cc1cc(=O)oc2cc(OCCCCOc3ccc(/C=C/C(=O)Nc4ccc(F)c(Cl)c4)cc3)ccc12"
assayed_system = "UACC-62 melanoma"
measurement_kind = "growth"
u = "%"
meas_value = 92

[[record]]
compound = "COC(=O)c1c(C(=O)OC)c2n(c1C)[C@@H]([C@@H](C)[C@H]1CC[C@H]3[C@@H]4CCC5=CC(=O)CC[C@]5(C)[C@H]4CC[C@]13C)SC2"
assayed_system = "UACC-62 melanoma"
measurement_kind = "growth"
u = "%"
meas_value = 40.6


// sample "O=c1[nH][nH]c(Nc2ccccc2)c1N=Nc1ccc(F)cc1" , its growth was 92.1

// sample "Cc1ccc(/C(CSc2nnc(-c3c[nH]c4ccccc34)n2-c2ccccc2)=N/O)cc1" , its growth was -52.6

// sample CC1CC(c2ccc(N(C)C)cc2)=NN1c1nc(O)c(C2=c3cc(Br)ccc3=NC2=O)s1 (centres undefined) , its growth was 98.5

// sample "Cc1ccc(-c2cc(-c3cc4ccccc4nc3Cl)[nH]c(=S)n2)cc1" , its growth was 21.5

// sample "Cc1ccc(NC(=O)c2ccc(-n3c(=O)[nH]c4ccccc4c3=O)cc2)cc1" , its growth was 82.4

// sample "CNC(=O)c1cccc(N2CCc3c2ccc(NC(=O)Nc2ccc(N4CCN(C)CC4)c(C(F)(F)F)c2)c3F)c1" , its growth was 88.9

// sample "O=C(c1ccc([N+](=O)[O-])c([N+](=O)[O-])c1O)n1[nH]c(=O)c2ccccc2c1=O" , its growth was 60.3
